B1: library; a variant is named by its letters at N, in order (parent)
chain: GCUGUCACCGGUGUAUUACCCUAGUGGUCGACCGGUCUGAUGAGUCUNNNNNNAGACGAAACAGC

Variants of: B1
Assay: normalized RNA/DNA level without ligand (relative to sTRSVctl = 100) (log10 (% of sTRSVctl)); ligand: hypoxanthine (xanthine aptamer); higher = less ribozyme self-cleavage, higher mRNA level
Settings: HEK293T, reporter: mCherry (pCS4076), ligand present: no
readout: normalized RNA/DNA level without ligand (log10)

Some solved entries appear below for comparison.
{"variant.spec": "AUGUCG", "recorded.result": 1.52}
{"variant.spec": "GUUUGG", "recorded.result": 1.57}
{"variant.spec": "GCGUCC", "recorded.result": 1.59}
{"variant.spec": "CCACAA", "recorded.result": 1.8}
{"variant.spec": "ACUAAG", "recorded.result": 1.52}

Give measured normalized RNA/DNA level without ligand (log10) for every item shown.
1. UACAGA
2. CGUCUA
3. GCAAUU

result:
[1.54, 1.87, 1.86]

Give measured normalized RNA/DNA level without ligand (log10) for every item shown.
1. GUGUGC
2. CGCCUA
3. GCUGAG
4. UAGUCU
5. CGAUCU
6. GGCGUC
7. ACCAUU

result:
1. 1.36
2. 1.85
3. 1.35
4. 1.88
5. 1.88
6. 1.9
7. 1.84

Give measured normalized RNA/DNA level without ligand (log10) for every item shown.
1. UGUACU
2. GCCAUG
3. AACGGU
4. ACUUUA
5. AGGCCG
6. GUUGCC
7. ACGUCG

result:
[1.85, 1.48, 1.58, 1.82, 1.67, 1.9, 1.41]

Origin of the recorded values: the supplement of paper PMC6757056
